molecular target: CYP3A4 (Homo sapiens); construct: utilizes human liver microsomes together with isoform-specific clinical drug probes; from tissue; host or cells: human liver microsomes; experiment: High density DDI 3 μM cocktail screen in human liver microsomes, midazolam probe; type: in vitro ADME; conditions: human, liver microsomes, probe midazolam, read-out: % inhibition 3A4 @ 3 μM
Sequence (P08684 whole entry, canonical isoform): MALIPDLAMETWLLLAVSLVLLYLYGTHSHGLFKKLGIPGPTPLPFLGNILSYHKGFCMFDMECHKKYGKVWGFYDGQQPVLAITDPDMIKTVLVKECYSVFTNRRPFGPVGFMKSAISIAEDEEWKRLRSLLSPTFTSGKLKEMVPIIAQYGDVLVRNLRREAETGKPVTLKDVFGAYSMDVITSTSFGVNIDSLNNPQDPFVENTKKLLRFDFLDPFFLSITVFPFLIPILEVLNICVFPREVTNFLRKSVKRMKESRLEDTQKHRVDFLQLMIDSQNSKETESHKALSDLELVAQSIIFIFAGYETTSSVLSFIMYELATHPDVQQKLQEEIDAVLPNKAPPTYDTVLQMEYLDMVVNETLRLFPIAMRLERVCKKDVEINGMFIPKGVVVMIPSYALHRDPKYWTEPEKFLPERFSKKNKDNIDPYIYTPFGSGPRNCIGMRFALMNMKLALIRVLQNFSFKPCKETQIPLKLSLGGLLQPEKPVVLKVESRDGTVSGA
Field: inhibition at 3 µM. Provide a value for each of the compounds that follow.
Numbers only; they are read as %.

Ask: What value of measured inhibition at 3 µM is listed for "COC(=O)N1CCN(C(=O)[C@@H]2CN(c3ccc(C#N)nn3)C[C@H]2c2ccc(F)cc2F)CCC[C@H]1c1ccc(Cl)cc1" ?
Reply: 70.6

Ask: Same again, this time with COC(=O)N1CCN(C(=O)[C@@H]2CN(c3ccc(Cl)nn3)C[C@H]2c2ccc(OC)cc2F)CCCC1c1ccc(Cl)cc1 (mixture of isomers)
Reply: 55.5

Ask: Same again, this time with COC(=O)N1CCN(C(=O)[C@@H]2CN(C(C)(C)C)C[C@H]2c2ccc(F)cc2F)CCC1c1ccc(Cl)cc1 (mixture of isomers)
Reply: 20.3

Ask: Same again, this time with "COC(=O)N1CCN(C(=O)[C@@H]2CN(c3ccc(=O)[nH]n3)C[C@H]2c2ccc(OC)cc2F)CCC[C@H]1c1ccc(Cl)cc1"
Reply: 53

Ask: Same again, this time with "COC(=O)N1CCN(C(=O)[C@@H]2CN(c3ccc(=O)n(C)n3)C[C@H]2c2ccc(F)cc2F)CCC[C@@H]1c1ccc(Cl)cc1"
Reply: 54.2

Ask: Same again, this time with CC(=O)N1CCN(C(=O)[C@@H]2CN(C(C)(C)C)C[C@H]2c2ccc(F)cc2F)CCC1c1ccc(F)cc1F (mixture of isomers)
Reply: 24.2
